Test system: 521955-158-R6-J3-PDC complex spheroid growth, % test/control
assayProcedure: Anticancer human tumor 521955-158-R6-J3-PDC patient-derived pancreatic carcinoma cell line growth inhibition [Asc]
measurementConditions: second compound 0.1 µM; first compound 0.001 µM; stronger effect = lower value
Quick reference for viability, T/C among some compounds
Record the value in %, omitting the unit from your answer.

Solved cases below.
Cn1ncnc1[C@H]1c2n[nH]c(=O)c3cc(F)cc(c23)N[C@@H]1c1ccc(F)cc1 + CNC(C)C(=O)NC1CN(S(=O)(=O)c2cccc(S(=O)(=O)N3CCC4CCC(C(=O)NC(c5ccccc5)c5ccccc5)N4C(=O)C(NC(=O)C(C)NC)C3)c2)CCC2CCC(C(=O)NC(c3ccccc3)c3ccccc3)N2C1=O    79.2
Cn1ncnc1[C@H]1c2n[nH]c(=O)c3cc(F)cc(c23)N[C@@H]1c1ccc(F)cc1 + Cc1c(S(C)(=O)=O)c(-c2cc(F)cc(N3CCN(c4ccc(NS(=O)(=O)c5ccc(NC(CCN6CCC(C(=O)OCCCP(=O)(O)O)CC6)CSc6ccccc6)c(S(=O)(=O)C(F)(F)F)c5)cc4)CC3)c2)c(-c2ccc(Cl)cc2)n1C(C)C    75.1
NC1CCC(NC2CC2c2ccccc2)CC1 (centres undefined) + Cc1c(S(C)(=O)=O)c(-c2cc(F)cc(N3CCN(c4ccc(NS(=O)(=O)c5ccc(NC(CCN6CCC(C(=O)OCCCP(=O)(O)O)CC6)CSc6ccccc6)c(S(=O)(=O)C(F)(F)F)c5)cc4)CC3)c2)c(-c2ccc(Cl)cc2)n1C(C)C    94.7

Now look at this entry.
Name the recorded viability, T/C for NC1CCC(NC2CC2c2ccccc2)CC1 (centres undefined) + CNC(C)C(=O)NC1CN(S(=O)(=O)c2cccc(S(=O)(=O)N3CCC4CCC(C(=O)NC(c5ccccc5)c5ccccc5)N4C(=O)C(NC(=O)C(C)NC)C3)c2)CCC2CCC(C(=O)NC(c3ccccc3)c3ccccc3)N2C1=O .
80.8

* * *

Test system: 521955-158-R6-J3-PDC complex spheroid growth, % test/control
assayProcedure: Anticancer human tumor 521955-158-R6-J3-PDC cell line growth inhibition [Asc];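 further: spheroids exposed to compounds for 7 days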;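 on viability, T/C: 100% = DMSO vehicle control wells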
measurementConditions: second compound 0.03 µM; first compound 1 µM; stronger effect = lower value
Rule: measured viability, T/C below 40% gets 1.0; anything equal to or greater than 40% gets 0.0.

These solved cases illustrate the format of a correct answer.
C=CC(=O)N1CCN(c2nc(=O)n(-c3c(C)ccnc3C(C)C)c3nc(-c4c(O)cccc4F)c(F)cc23)C(C)C1 (stereo not given) + CCN1C(C(=O)NC23CCC(C(=O)O)(CC2)CC3)C(c2cccc(Cl)c2F)C2(C(=O)Nc3cc(Cl)ccc32)C12CCCCC2    0.0
CCN1CCN(Cc2ccc(Nc3ncc(F)c(-c4cc(F)c5nc(C)n(C(C)C)c5c4)n3)nc2)CC1 + CCN1C(C(=O)NC23CCC(C(=O)O)(CC2)CC3)C(c2cccc(Cl)c2F)C2(C(=O)Nc3cc(Cl)ccc32)C12CCCCC2    0.0

Regarding O=C(c1cc(Cc2n[nH]c(=O)c3ccccc23)ccc1F)N1CCN(C(=O)C2CC2)CC1 + CCN1C(C(=O)NC23CCC(C(=O)O)(CC2)CC3)C(c2cccc(Cl)c2F)C2(C(=O)Nc3cc(Cl)ccc32)C12CCCCC2 , kindly confirm whether its viability, T/C is beneath 40%.
0.0

Regarding COc1c(OCCCN2CCOCC2)ccc2c3n(c(=NC(=O)c4cnc(N)nc4)nc12)CCN3 + CCN1C(C(=O)NC23CCC(C(=O)O)(CC2)CC3)C(c2cccc(Cl)c2F)C2(C(=O)Nc3cc(Cl)ccc32)C12CCCCC2 , kindly confirm whether its viability, T/C is beneath 40%.
1.0

Regarding O=C(c1ccc(F)c(F)c1Nc1ccc(I)cc1F)N1CC(O)([C@@H]2CCCCN2)C1 + CCN1C(C(=O)NC23CCC(C(=O)O)(CC2)CC3)C(c2cccc(Cl)c2F)C2(C(=O)Nc3cc(Cl)ccc32)C12CCCCC2 , kindly confirm whether its viability, T/C is beneath 40%.
1.0

* * *

Test system: 521955-158-R6-J3-PDC complex spheroid growth, % test/control
assayProcedure: Anticancer human tumor 521955-158-R6-J3-PDC cell line growth inhibition [Asc];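 further: spheroids exposed to compounds for 7 days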;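 on viability, T/C: 100% = DMSO vehicle control wells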
measurementConditions: second compound 1 µM; first compound 0.0316 µM; stronger effect = lower value
measure: viability, T/C

COc1c(OCCCN2CCOCC2)ccc2c3n(c(=NC(=O)c4cnc(N)nc4)nc12)CCN3 + CNC(C)C(=O)NC1CN(S(=O)(=O)c2cccc(S(=O)(=O)N3CCC4CCC(C(=O)NC(c5ccccc5)c5ccccc5)N4C(=O)C(NC(=O)C(C)NC)C3)c2)CCC2CCC(C(=O)NC(c3ccccc3)c3ccccc3)N2C1=O    53%

Could you share what viability, T/C was measured for NC1CCC(NC2CC2c2ccccc2)CC1 (stereo not given) + CNC(C)C(=O)NC1CN(S(=O)(=O)c2cccc(S(=O)(=O)N3CCC4CCC(C(=O)NC(c5ccccc5)c5ccccc5)N4C(=O)C(NC(=O)C(C)NC)C3)c2)CCC2CCC(C(=O)NC(c3ccccc3)c3ccccc3)N2C1=O , tested on 521955-158-R6-J3-PDC complex spheroid growth, % test/control?
92.2%

Could you share what viability, T/C was measured for CCN1CCN(Cc2ccc(Nc3ncc(F)c(-c4cc(F)c5nc(C)n(C(C)C)c5c4)n3)nc2)CC1 + Cc1c(S(C)(=O)=O)c(-c2cc(F)cc(N3CCN(c4ccc(NS(=O)(=O)c5ccc(NC(CCN6CCC(C(=O)OCCCP(=O)(O)O)CC6)CSc6ccccc6)c(S(=O)(=O)C(F)(F)F)c5)cc4)CC3)c2)c(-c2ccc(Cl)cc2)n1C(C)C , tested on 521955-158-R6-J3-PDC complex spheroid growth, % test/control?
29.4%

Could you share what viability, T/C was measured for CCN1CCN(Cc2ccc(Nc3ncc(F)c(-c4cc(F)c5nc(C)n(C(C)C)c5c4)n3)nc2)CC1 + CNC(C)C(=O)NC1CN(S(=O)(=O)c2cccc(S(=O)(=O)N3CCC4CCC(C(=O)NC(c5ccccc5)c5ccccc5)N4C(=O)C(NC(=O)C(C)NC)C3)c2)CCC2CCC(C(=O)NC(c3ccccc3)c3ccccc3)N2C1=O , tested on 521955-158-R6-J3-PDC complex spheroid growth, % test/control?
71.8%

Could you share what viability, T/C was measured for C=C(F)C(=O)N1CCN(c2nc(OCC3CCCN3C)nc3c2CCN(c2cccc4cccc(Cl)c24)C3)CC1CC#N (stereo not given) + Cc1c(S(C)(=O)=O)c(-c2cc(F)cc(N3CCN(c4ccc(NS(=O)(=O)c5ccc(NC(CCN6CCC(C(=O)OCCCP(=O)(O)O)CC6)CSc6ccccc6)c(S(=O)(=O)C(F)(F)F)c5)cc4)CC3)c2)c(-c2ccc(Cl)cc2)n1C(C)C , tested on 521955-158-R6-J3-PDC complex spheroid growth, % test/control?
40.1%

* * *

Tested on: 521955-158-R6-J3-PDC complex spheroid growth, % test/control
assayProcedure: Anticancer human tumor 521955-158-R6-J3-PDC cell line growth inhibition [Asc];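 further: spheroids exposed to compounds for 7 days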
measurementConditions: curve of first compound; second compound 0.3 µM
Quick reference for IC50 among some molecules

Name the recorded IC50 for CCN1CCN(Cc2ccc(Nc3ncc(F)c(-c4cc(F)c5nc(C)n(C(C)C)c5c4)n3)nc2)CC1 + CCN1C(C(=O)NC23CCC(C(=O)O)(CC2)CC3)C(c2cccc(Cl)c2F)C2(C(=O)Nc3cc(Cl)ccc32)C12CCCCC2 .
> 1000 nM

Name the recorded IC50 for Cn1ncnc1[C@H]1c2n[nH]c(=O)c3cc(F)cc(c23)N[C@@H]1c1ccc(F)cc1 + CCN1C(C(=O)NC23CCC(C(=O)O)(CC2)CC3)C(c2cccc(Cl)c2F)C2(C(=O)Nc3cc(Cl)ccc32)C12CCCCC2 .
> 100 nM

Name the recorded IC50 for NC(=O)C(=Cn1cnc(-c2cc(C(F)(F)F)cc(C(F)(F)F)c2)n1)c1cncnc1 + CCN1C(C(=O)NC23CCC(C(=O)O)(CC2)CC3)C(c2cccc(Cl)c2F)C2(C(=O)Nc3cc(Cl)ccc32)C12CCCCC2 .
> 300 nM

* * *

Quick reference for viability, T/C among some compounds
System: 521955-158-R6-J3-PDC complex spheroid growth, % test/control
assayProcedure: Anticancer human tumor 521955-158-R6-J3-PDC cell line growth inhibition [Asc];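 further: spheroids exposed to compounds for 7 days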;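 on viability, T/C: 100% = DMSO vehicle control wells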
measurementConditions: second compound 0.03 µM; first compound 0.316 µM; stronger effect = lower value
Record the value in %, omitting the unit from your answer.

Solved cases below.
CCN1CCN(Cc2ccc(Nc3ncc(F)c(-c4cc(F)c5nc(C)n(C(C)C)c5c4)n3)nc2)CC1 + CCN1C(C(=O)NC23CCC(C(=O)O)(CC2)CC3)C(c2cccc(Cl)c2F)C2(C(=O)Nc3cc(Cl)ccc32)C12CCCCC2    92.9
C=CC(=O)N1CCN(c2nc(=O)n(-c3c(C)ccnc3C(C)C)c3nc(-c4c(O)cccc4F)c(F)cc23)C(C)C1 (stereo not drawn) + CCN1C(C(=O)NC23CCC(C(=O)O)(CC2)CC3)C(c2cccc(Cl)c2F)C2(C(=O)Nc3cc(Cl)ccc32)C12CCCCC2    103

Now look at this entry.
Name the recorded viability, T/C for CNC(C)C(=O)NC1CN(S(=O)(=O)c2cccc(S(=O)(=O)N3CCC4CCC(C(=O)NC(c5ccccc5)c5ccccc5)N4C(=O)C(NC(=O)C(C)NC)C3)c2)CCC2CCC(C(=O)NC(c3ccccc3)c3ccccc3)N2C1=O (stereo not drawn) + CCN1C(C(=O)NC23CCC(C(=O)O)(CC2)CC3)C(c2cccc(Cl)c2F)C2(C(=O)Nc3cc(Cl)ccc32)C12CCCCC2 .
69
